Assay: Plasma and brain concentrations in 6 Hz studies (LC-MS/MS)
Type: in vivo, mouse
Conditions: mouse, plasma, intraperitoneal, 300 mg/kg, Study 3B, Levetiracetam 300 mg/kg IP 1 h alone; read-out: Plasma
attribute-measured: concentration at 1 h
Show the value, then the unit it is measured in.

query: Looking for the measured concentration at 1 h of CC[C@@H](C(N)=O)N1CCCC1=O [Levetiracetam, reference compound] , can you help?
result: 1500 µM

----------
Experiment: Terminal plasma and brain concentrations in AC-MES studies (UHPLC-MS/MS)
Assay type: in vivo, mouse
Settings: CF-1, mouse, in vivo, po, 2 mg/kg, Study 4F, Compound A 2 mg/kg PO, 0.5 h, alone; read-out: mean plasma concentration
attribute-measured: concentration at 0.5 h

query: Data request, read-out concentration at 0.5 h, for Cc1cc(N2CCc3cc(F)ccc3C2)cc(C)c1NC(=O)CC(C)(C)C [Compound A]
result: 110 nM

This collection of values is drawn from patent US20220288057A1.
